# test-system: Cellular tumor antigen p53 (Homo sapiens)
# test-details: TOX21_p53_BLA_p5_ratio: Tox21 HCT-116 p53 Agonism Beta-lactamase Assay, Ratio, Phase 5 (AID 2283599)
Results filed as inconclusive are left out. Calls of active or inactive are those of the source. Rule for the calls: active = hit-call score of the fitted dose curve at least 0.9, where 1 is the maximum; inconclusive = response in the unintended direction; inactive = score below 0.9.
Hello, when you answer, please use one of the following outcomes: active, inactive

Worked set:
CC(C)NCC(O)COc1ccc(COCCOC(C)C)cc1 (centres undefined) = inactive
O=C(O)c1ccc(Cl)cc1Cl = inactive
Cc1c(C)n(Cc2ccccc2)c2ccc(C(=O)OCCN(C)C)cc12 = inactive
O=C(CC(=O)C(F)(F)F)c1ccccc1 = inactive
C=CCN1CCCC1CNC(=O)c1cc(S(N)(=O)=O)cc(OC)c1OC (centres undefined) = inactive

Prompt: How did this test come out for COc1ccc2nc(NC(=O)Nc3ccccc3)sc2c1 ?
Completion: inactive

Prompt: Check CCc1cnc(C(=O)O)c(C(=O)O)c1 too.
Completion: inactive

Prompt: Check NCCS too.
Completion: inactive

* * *

# Read-out: Intercellular Adhesion Molecule 1 (ICAM1), ICAM1 (gene 3383)
# test-details: BSK_3C_ICAM1: BioMAP Diversity Plus: 3C Assay for Intercellular Adhesion Molecule 1 (ICAM1) Biomarker Activity (AID 2283003)
# condition-details: primary human endothelial cells (HUVEC); actives raise or lower the signal
Active and inactive are the calls of the source. The calls were made as follows: active = hit-call score of the fitted dose curve at least 0.9, where 1 is the maximum; inactive = score below 0.9.
readout-label: AC50

C1CN(CCOCCN2CCOCC2)CCO1 = inactive
CCCCCCCCCC/C=C/C1CC(=O)OC1=O (stereo not given) = inactive
CCC[Si](OC(C)=O)(OC(C)=O)OC(C)=O = inactive
CN(C)c1ccc(C(c2ccccc2)c2ccc(N(C)C)cc2)cc1 = inactive

Prompt: Would you kindly share the measured AC50 for O=C(C(=O)c1ccccc1)c1ccccc1 ?
Completion: inactive

Prompt: Check CC(C)C1OCCN1CCOC(=O)NCCCCCCNC(=O)OCCN1CCOC1C(C)C (stereo not given) too.
Completion: inactive

Prompt: Check CCC(C)=NO too.
Completion: inactive

Prompt: Check CCCCCCCCCCC1CO1 (stereo not given) too.
Completion: 36.2 µM (active)

Prompt: Check COC(=O)/C=C\C(=O)OC too.
Completion: inactive

Prompt: Check CCCCCCCCCCCCCCCCCC[N+](C)(C)C too.
Completion: 3.46 µM (active)

* * *

# test-system: Cellular tumor antigen p53 (Homo sapiens)
# test-details: TOX21_p53_BLA_p2_ratio: Tox21 HCT-116 p53 Agonism Beta-lactamase Assay, Ratio, Phase 2 (AID 2283592)
# Description: TOX21_p53_BLA_p2 is a cell-based, single-readout assay that uses HCT116, a human intestinal cell line, […] in a 1536-well plate.TOX21_p53_BLA_p2_ratio is an assay readout measuring reporter gene via receptor activity and designed using inducible reporter (beta lactamase induction) detected with GAL4 b-lactamase reporter gene. […] This assay endpoint, TOX21_p53_BLA_p2_ratio, was analyzed in the positive analysis fitting direction relative to DMSO as the negative control and baseline of activity. […]
Records with an inconclusive call do not appear. Active and inactive are the calls of the source. Rule for the calls: active = hit-call score of the fitted dose curve at least 0.9, where 1 is the maximum; inconclusive = response in the unintended direction; inactive = score below 0.9.
readout-label: outcome

Before answering, review these 4 worked examples.
C=CC(=O)OCCOC(=O)CCC(=O)O = inactive
O=C(C=Cc1ccc(O)c(O)c1)O[C@@H]1C[C@@](OC(=O)C=Cc2ccc(O)c(O)c2)(C(=O)O)C[C@@H](O)[C@@H]1O = inactive
CCCCC(C)(O)C/C=C/[C@H]1[C@H](O)CC(=O)[C@@H]1CCCCCCC(=O)OC (stereo not given in full) = inactive
CCOC(=N)CC(=O)OCC = inactive

Turning now to a further compound:
Prompt: Would you kindly share the measured outcome for Cc1ncc(C[n+]2csc(CCOP(=O)(O)O)c2C)c(N)n1 ?
Completion: inactive
